Every entry's value here was drawn from patent US20080095786A9.

# ASSAY_PROTOCOL: Antioxidant screening experiments: stability of E5564 to free-radical oxidation
# CONDITION_DESCRIPTION: 18-22 hours
REPORTED_PROPERTY: Comments (effectiveness of antioxidant in stabilizing E5564 to oxidation)

A selection of reference data follows.
| COMPOUND | RECORDED_VALUE |
| --- | --- |
| O=C1O[C@H]([C@@H](O)CO)C(O)=C1O | Not useful, sta- |
| Cc1cc(C(C)(C)C)c(O)c(C(C)(C)C)c1 [BHT, butylated hydroxytoluene] | Effective |
| O=S([O-])[O-].[Na+].[Na+] [Sodium Sulfite, sodium sulfite] | Effective |
| OCC(O)CS (stereo not shown) | Effective |

Qu. Given CCCOC(=O)c1cc(O)c(O)c(O)c1 [Propyl Gallate, propyl gallate] , state its recorded Comments (effectiveness of antioxidant in stabilizing E5564 to oxidation).
Ans. Effective

Qu. Another compound: O=S([O-])([O-])=S.[Na+].[Na+] [Sodium Thiosulfate, sodium thiosulfate]
Ans. Effective

Qu. Another compound: CCCCCCCCCCCCCCCC(=O)OC[C@H](O)[C@H]1OC(=O)C(O)=C1O [Ascorbyl Palmitate]
Ans. Not useful, sta-

Qu. Another compound: COc1ccc(O)c(C(C)(C)C)c1 [BHA, butylated hydroxyanisole]
Ans. Effective

###

# ASSAY_PROTOCOL: Antioxidant screening experiments: stability of E5564 to free-radical oxidation
# CONDITION_DESCRIPTION: time 18-22 hours; E5564 solution with the labelled antioxidant (row 'none' = E5564 without antioxidant)
# E5564 conc. (% initial) per entry
Supply the numeric figure in % initial, leaving out any unit text.

A selection of reference data follows.
| COMPOUND | E5564 conc. (% initial) |
| --- | --- |
| Cc1cc(C(C)(C)C)c(O)c(C(C)(C)C)c1 [BHT, butylated hydroxytoluene] | 102.8 |
| O=C1O[C@H]([C@@H](O)CO)C(O)=C1O [Ascorbic Acid] | 97.4 |
| CCCCCC/C=C\CCCCCCCCCC(=O)N[C@H]1[C@H](OC[C@H]2O[C@H](OP(=O)([O-])[O-])[C@H](NC(=O)CC(=O)CCCCCCCCCCC)[C@@H](OCCCCCCCCCC)[C@@H]2O)O[C@H](COC)[C@@H](OP(=O)([O-])[O-])[C@@H]1OCC[C@@H](CCCCCCC)OC.[Na+].[Na+].[Na+].[Na+] [E5564] | 91.3 |
| O=S([O-])([O-])=S.[Na+].[Na+] [Sodium Thiosulfate, sodium thiosulfate] | 100.2 |
| CCCOC(=O)c1cc(O)c(O)c(O)c1 [Propyl Gallate, propyl gallate] | 100.6 |
| O=S([O-])[O-].[Na+].[Na+] [Sodium Sulfite, sodium sulfite] | 101.8 |

Qu. Given CCCCCCCCCCCCCCCC(=O)OC[C@H](O)[C@H]1OC(=O)C(O)=C1O [Ascorbyl Palmitate] , state its recorded E5564 conc. (% initial).
Ans. 92.4

Qu. Another compound: CC(=O)Oc1c(C)c(C)c2c(c1C)CCC(C)(CCC[C@H](C)CCC[C@H](C)CCCC(C)C)O2 (stereo partly shown) [Vitamin E Acetate]
Ans. 94.2

Qu. Another compound: OCC(O)CS (stereo not shown) [Monothioglycerol, monothioglycerol]
Ans. 101.3

Qu. Another compound: COc1ccc(O)c(C(C)(C)C)c1 [BHA, butylated hydroxyanisole]
Ans. 102.3
